biological target: human sphingosine-1-phosphate receptor 1 (S1P1) (Homo sapiens (Human)); assay: Inhibition of cAMP production (HTRF cAMP HiRange), S1P1 CHO-K1 cells; format: cell-based; conditions: inhibition of cAMP production, S1P1 CHO-K1 cells
Sequence (P21453 whole entry, looked up): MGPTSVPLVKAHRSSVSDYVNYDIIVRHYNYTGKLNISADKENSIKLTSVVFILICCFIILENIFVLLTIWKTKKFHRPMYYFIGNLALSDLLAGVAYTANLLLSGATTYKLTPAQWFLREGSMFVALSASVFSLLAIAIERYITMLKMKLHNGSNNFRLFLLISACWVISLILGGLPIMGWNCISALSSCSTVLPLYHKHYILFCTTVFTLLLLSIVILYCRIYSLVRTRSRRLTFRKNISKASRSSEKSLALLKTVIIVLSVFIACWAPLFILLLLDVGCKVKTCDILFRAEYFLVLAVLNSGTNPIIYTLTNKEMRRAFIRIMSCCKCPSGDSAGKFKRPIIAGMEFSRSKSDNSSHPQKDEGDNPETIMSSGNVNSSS
Below, each of the compounds is paired with its reported hS1P1 cAMP pEC50 value.
TEST READOUT: hS1P1 cAMP pEC50

{"COMPOUND": "CC(C)n1nnc2cc(-c3nc(-c4ccc(-c5ccccc5)cn4)no3)ccc21 [Compound 9]", "TEST READOUT": "hS1P1 cAMP pEC50", "RESULT": "<6.5"}
{"COMPOUND": "CN1C(=O)Cc2cc(-c3nc(-c4cccnc4)no3)ccc21 [Compound 377]", "TEST READOUT": "hS1P1 cAMP pEC50", "RESULT": "<6.5"}
{"COMPOUND": "CCC1(CC)CC(=O)c2cc(-c3nc(-c4ccc5nonc5c4)no3)ccc2O1 [Compound 500]", "TEST READOUT": "hS1P1 cAMP pEC50", "RESULT": "<6.5"}
{"COMPOUND": "Cc1ccc2oc(-c3ccc4c(c3)nnn4C(C)C)nc2c1 [Compound 419]", "TEST READOUT": "hS1P1 cAMP pEC50", "RESULT": ">6.5"}
{"COMPOUND": "O=C(O)CCn1nnc2cc(-c3noc(-c4ccccc4Br)n3)ccc21 [Compound 134]", "TEST READOUT": "hS1P1 cAMP pEC50", "RESULT": "<6.5"}
{"COMPOUND": "Cc1ccccc1-c1noc(-c2ccc3c(c2)nnn3C2CCCCC2)n1 [Compound 245]", "TEST READOUT": "hS1P1 cAMP pEC50", "RESULT": "<6.5"}
{"COMPOUND": "Cc1cccc(-c2noc(-c3ccc4c(c3)nnn4C3CCCCC3)n2)c1 [Compound 11]", "TEST READOUT": "hS1P1 cAMP pEC50", "RESULT": "<6.5"}
{"COMPOUND": "CC(C)n1ccc2cc(-c3noc(-c4ccccc4Br)n3)ccc21 [Compound 388]", "TEST READOUT": "hS1P1 cAMP pEC50", "RESULT": ">6.5"}
{"COMPOUND": "CC(C)n1nnc2cc(-c3noc(-c4ccccc4C(F)(F)F)n3)ccc21 [Compound 33]", "TEST READOUT": "hS1P1 cAMP pEC50", "RESULT": ">6.5"}
{"COMPOUND": "CC(C)Oc1ccc(-c2nc(-c3ccc4c(c3)nnn4C(C)C)no2)cc1C(F)(F)F [Compound 246]", "TEST READOUT": "hS1P1 cAMP pEC50", "RESULT": ">6.5"}
{"COMPOUND": "CC(C)n1nnc2cc(-c3nc(-c4ccncc4C(F)(F)F)no3)ccc21 [Compound 455]", "TEST READOUT": "hS1P1 cAMP pEC50", "RESULT": ">6.5"}
{"COMPOUND": "CC(C)n1ccc2cc(-c3noc(-c4cccnc4)n3)ccc21 [Compound 396]", "TEST READOUT": "hS1P1 cAMP pEC50", "RESULT": "<6.5"}
{"COMPOUND": "C=CCNc1ccc(-c2nc(-c3ccc4[nH]ccc4c3)no2)cc1C#N [Compound 208]", "TEST READOUT": "hS1P1 cAMP pEC50", "RESULT": ">6.5"}
{"COMPOUND": "CC1(C)CC(=O)c2cc(-c3nc(-c4ccncc4)no3)ccc2O1 [Compound 291]", "TEST READOUT": "hS1P1 cAMP pEC50", "RESULT": "<6.5"}
{"COMPOUND": "CC(C)Oc1ccccc1-c1noc(-c2ccc3c(ccn3C(C)C)c2)n1 [Compound 324]", "TEST READOUT": "hS1P1 cAMP pEC50", "RESULT": "<6.5"}
{"COMPOUND": "Brc1ccccc1-c1noc(-c2ccc3[nH]nnc3c2)n1 [Compound 190]", "TEST READOUT": "hS1P1 cAMP pEC50", "RESULT": "<6.5"}
{"COMPOUND": "CCC1(CC)CC(=O)c2cc(-c3nc(-c4ccoc4)no3)ccc2O1 [Compound 495]", "TEST READOUT": "hS1P1 cAMP pEC50", "RESULT": ">6.5"}
{"COMPOUND": "COc1cnc(-c2nc(-c3ccc4c(c3)nnn4C(C)C)no2)cn1 [Compound 51]", "TEST READOUT": "hS1P1 cAMP pEC50", "RESULT": "<6.5"}
{"COMPOUND": "CC(C)Nc1ccc(-c2nc(-c3ccc4c(c3)CC(=O)N4)no2)cc1C#N [Compound 107]", "TEST READOUT": "hS1P1 cAMP pEC50", "RESULT": ">6.5"}
{"COMPOUND": "c1ccc(-c2noc(-c3ccc4c(c3)nnn4C3CCCC3)n2)cc1 [Compound 7]", "TEST READOUT": "hS1P1 cAMP pEC50", "RESULT": "<6.5"}
{"COMPOUND": "CC(C)n1ccc2cc(-c3nc(-c4cccc5c4OCO5)no3)ccc21 [Compound 326]", "TEST READOUT": "hS1P1 cAMP pEC50", "RESULT": "<6.5"}
{"COMPOUND": "N#Cc1cc(-c2nc(-c3ccc4oc(=O)[nH]c4c3)no2)ccc1NCC1CC1 [Compound 423]", "TEST READOUT": "hS1P1 cAMP pEC50", "RESULT": ">6.5"}
{"COMPOUND": "COc1ccccc1-c1nc(-c2ccc3c(ccn3C(C)C)c2)no1 [Compound 398]", "TEST READOUT": "hS1P1 cAMP pEC50", "RESULT": ">6.5"}
{"COMPOUND": "N#Cc1cc(-c2nc(-c3ccc4c(c3)CCC(=O)N4)no2)ccc1NCC(F)(F)F [Compound 472]", "TEST READOUT": "hS1P1 cAMP pEC50", "RESULT": ">6.5"}
{"COMPOUND": "CCC1(CC)CC(=O)c2cc(-c3nc(-c4cncc(C(N)=O)c4)no3)ccc2O1 [Compound 537]", "TEST READOUT": "hS1P1 cAMP pEC50", "RESULT": ">6.5"}
{"COMPOUND": "COc1ccc(-c2noc(-c3ccc4c(c3)nnn4CC(C)(C)O)n2)c(C)c1 [Compound 26]", "TEST READOUT": "hS1P1 cAMP pEC50", "RESULT": ">6.5"}
{"COMPOUND": "Cc1cn(C)nc1-c1noc(-c2ccc3c(c2)nnn3CC(C)(C)O)n1 [Compound 518]", "TEST READOUT": "hS1P1 cAMP pEC50", "RESULT": "<6.5"}
{"COMPOUND": "CC(C)Cn1nnc2cc(-c3nc4cccc(Br)c4o3)ccc21 [Compound 454]", "TEST READOUT": "hS1P1 cAMP pEC50", "RESULT": ">6.5"}
{"COMPOUND": "Cc1occc1-c1noc(-c2ccc3c(c2)nnn3CC(C)(C)O)n1 [Compound 492]", "TEST READOUT": "hS1P1 cAMP pEC50", "RESULT": "<6.5"}
{"COMPOUND": "FC(F)(F)c1cc(-c2noc(-c3ccc4c(c3)nnn4C3CCCC3)n2)ccc1OCc1cccnc1 [Compound 4]", "TEST READOUT": "hS1P1 cAMP pEC50", "RESULT": "<6.5"}
{"COMPOUND": "COc1cnccc1-c1nc(-c2ccc3c(c2)nnn3C(C)C)no1 [Compound 606]", "TEST READOUT": "hS1P1 cAMP pEC50", "RESULT": ">6.5"}
{"COMPOUND": "CC(C)Nc1ccc(-c2nc(-c3ccc4c(c3)NC(=O)C4)no2)cc1C#N [Compound 496]", "TEST READOUT": "hS1P1 cAMP pEC50", "RESULT": ">6.5"}
{"COMPOUND": "N#Cc1cc(-c2nc(-c3ccc4c(c3)NC(=O)CC4)no2)ccc1NCC1CC1 [Compound 471]", "TEST READOUT": "hS1P1 cAMP pEC50", "RESULT": ">6.5"}
{"COMPOUND": "CC(C)n1nnc2cc(-c3nnc(-c4ccccc4O)s3)ccc21 [Compound 70]", "TEST READOUT": "hS1P1 cAMP pEC50", "RESULT": ">6.5"}
{"COMPOUND": "CC(C)Nc1ccc(-c2nnc(-c3ccc4c(c3)C(=O)NCC4)o2)cc1C#N [Compound 638]", "TEST READOUT": "hS1P1 cAMP pEC50", "RESULT": ">6.5"}
{"COMPOUND": "CCC1(CC)CC(=O)c2cc(-c3nc(-c4ccccc4OC)ns3)ccc2O1 [Compound 257]", "TEST READOUT": "hS1P1 cAMP pEC50", "RESULT": "<6.5"}
